# Tested on: Pfa1 cells
# assay: Inhibition of non-apoptotic cell death after tamoxifen-induced GPx4 knockout in a recombinant cell line (Example B.4)
# Assay type: cell-based
# test-settings: Mus musculus, read-out: Pfa1/TAM IC50
test-readout: IC50

Below are worked cases with known answers.
| compound | IC50 |
| --- | --- |
| Cc1cc(C)cc(CNC2=Nc3ccccc3NC23CCOCC3)c1 | < 1000 nM |
| Fc1cc2c(cc1F)NC1(CCOCC1)C(NCc1ccccc1)=N2 | < 500 nM |
| Clc1ccc(CNC2=Nc3ccccc3NC23CCCCC3)cc1 | < 200 nM |
| Fc1ccc(CNC2=Nc3ccccc3NC23CCCCC3)c(F)c1 | < 500 nM |
| CC(NC1=Nc2ccccc2NC12CCNCC2)c1ccccc1 (stereo not drawn) | < 500 nM |

Qu. Which IC50 value belongs to Clc1cccc(CCNC2=Nc3ccccc3NC23CCNCC3)c1 ?
Ans. < 100 nM

Qu. Follow-up entry: CCCCCCCCCCCCN1CCC2(CC1)Nc1ccccc1N=C2NCc1ccccc1
Ans. < 100 nM

Qu. What do you get for CN1CCC2(CC1)Nc1ccccc1N=C2NCc1ccc(Cl)cc1 ?
Ans. < 100 nM

Qu. Also FC(F)(F)c1cccc(CNC2=Nc3cc(Cl)c(Cl)cc3NC23CCCCCC3)c1 , if possible.
Ans. < 200 nM

---

# assay: Cellular toxicity, same assay as Example B.4 without TAM (Example B.5)
# Assay type: cell-based
# test-settings: mouse; Pfa1 cells without TAM; read-out: TC50 (the source's name)
test-readout: CC50

| molecule | CC50 |
| --- | --- |
| Clc1ccccc1CNC1=Nc2ccccc2NC12CCCCC2 | 20 to 50 µM |
| CC(NC1=Nc2ccccc2NC12CCSCC2)c1ccccc1 (stereo not drawn) | 20 to 50 µM |
| Fc1cccc(F)c1CNC1=Nc2ccccc2NC12CCOCC2 | 50 to 100 µM |
| Fc1cccc(F)c1CNC1=Nc2ccccc2NC12CCCCCC2 | 10 to 20 µM |
| Clc1cc2c(cc1Cl)NC1(CCCNCC1)C(NCc1ccccc1)=N2 (stereo not drawn) | 2 to 5 µM |
| c1ccc(CNC2=Nc3ccccc3NC23CCNCC3)cc1 | 20 to 50 µM |
| Cc1cc(C)cc(CNC2=Nc3ccccc3NC23CCSCC3)c1 | 10 to 20 µM |
| Cc1ccccc1CNC1=Nc2ccccc2NC12CCNCC2 | 5 to 10 µM |

Qu. Look up CC50: CC(=O)NC1CCC2(CC1)Nc1ccccc1N=C2NCc1ccccc1 (stereo not drawn)
Ans. 50 to 100 µM

---

Item-by-item account of CC50
# assay: Cellular toxicity, same assay as Example B.4 without TAM (Example B.5)
# Assay type: cell-based
# test-settings: mouse; Pfa1 cells without TAM; read-out: TC50 (the source's name)

// known answers, use as guide
| compound | val |
| --- | --- |
| CC(=O)NC1CCC2(CC1)Nc1ccccc1N=C2NCc1cccc(Cl)c1 (stereo not shown) [C-111] | 10 to 20 µM |
| Cc1cccc(CNC2=Nc3cc(Cl)c(Cl)cc3NC23CCCCCC3)c1 [C-267] | 10 to 20 µM |
| Clc1cccc(CNC2=Nc3cc4c(cc3NC23CCNCC3)OCCO4)c1 [N-219] | 20 to 50 µM |
| CC(NC1=Nc2ccccc2NC12CCCCC2)c1ccccc1 (stereo not shown) [C-244] | 10 to 20 µM |
| c1ccc(CCCCNC2=Nc3ccccc3NC23CCCCC3)cc1 [C-232] | 20 to 50 µM |

Qu. Name the recorded CC50 for Cc1cc2c(cc1C)NC1(CCNCC1)C(NCc1cccc(F)c1)=N2 [N-257] .
Ans. 1 to 2 µM

---

# assay: Cellular toxicity, same assay as Example B.4 without TAM (Example B.5)
# Format: cell-based
# test-settings: mouse; Pfa1 cells without TAM; read-out: TC50 (the source's name)
test-readout: CC50

Examples with answers:
| compound | CC50 |
| --- | --- |
| Clc1cccc(CNC2=Nc3ccccc3NC23CCCCC3)c1 [C-2] | 10 to 20 µM |
| Clc1ccc(CNC2=Nc3ccccc3NC23CCNCC3)cc1Cl [N-211] | 1 to 2 µM |
| CC(NC1=Nc2ccccc2NC12CCNCC2)c1ccccc1 (stereo not drawn) [N-218] | 20 to 50 µM |
| c1ccc(C(CNC2=Nc3ccccc3NC23CCNCC3)c2ccccc2)cc1 [N-220] | 2 to 5 µM |
| c1ccc(CCNC2=Nc3ccccc3NC23CCCCC3)cc1 [C-226] | 10 to 20 µM |
| Fc1cc(Cl)ccc1CNC1=Nc2ccccc2NC12CCCCC2 [C-61] | 20 to 50 µM |
| Cc1cc2c(cc1C)NC1(CCSCC1)C(NCc1ccccc1)=N2 [O/S-369] | 10 to 20 µM |
| FC(F)(F)c1cccc(CNC2=Nc3ccccc3NC23CCOCC3)c1 [O/S-23] | 20 to 50 µM |
| c1ccc(CNC2=Nc3ccccc3NC23CCCCC3)cc1 [C-215] | 20 to 50 µM |
| CC1CCC2(CC1)Nc1ccccc1N=C2NCc1ccccc1 (stereo not drawn) [C-252] | 10 to 20 µM |

Qu. Find the recorded CC50 belonging to CC(=O)N1CCC2(CC1)Nc1ccccc1N=C2NCc1cccc(Cl)c1 [N-99] and report it.
Ans. 50 to 100 µM

Qu. Next record, please: c1ccc(CCCNC2=Nc3ccccc3NC23CCOCC3)cc1 [O/S-343]
Ans. 20 to 50 µM

---

# assay: Cellular toxicity, same assay as Example B.4 without TAM (Example B.5)
# Assay type: cell-based
# test-settings: mouse; Pfa1 cells without TAM; read-out: TC50 (the source's name)
test-readout: CC50

| compound | CC50 |
| --- | --- |
| Clc1ccc(CNC2=Nc3ccccc3NC23CCOCC3)c(Cl)c1 | 20 to 50 µM |
| Fc1cccc(F)c1CNC1=Nc2ccccc2NC12CCNCC2 | 10 to 20 µM |
| Cc1cccc(CNC2=Nc3cc(C)c(C)cc3NC23CCNCC3)c1 | 1 to 2 µM |

Qu. I'd like to know its CC50. The compound in question is Fc1ccc(CNC2=Nc3ccccc3NC23CCCCCC3)c(F)c1
Ans. 10 to 20 µM

Qu. Here is the next compound: FC(F)(F)c1cccc(CNC2=Nc3ccccc3NC23CCNCC3)c1
Ans. 20 to 50 µM

Qu. One more compound: Cc1cccc(CNC2=Nc3cc(Cl)c(Cl)cc3NC23CCNCC3)c1
Ans. 1 to 2 µM

Qu. Entry to check: Cc1cccc2c1NC1(CCCCC1)C(NCc1ccccc1)=N2
Ans. 10 to 20 µM

Qu. Item: Clc1cccc(CNC2=Nc3ccccc3NC23CCNCC3)c1
Ans. 5 to 10 µM

Qu. Now consider CC(NC1=Nc2ccccc2NC12CCOCC2)c1ccccc1 (stereo not shown) and answer again.
Ans. 50 to 100 µM

Qu. Next: CC1(C)CCC2(CC1)Nc1ccccc1N=C2NCc1ccccc1
Ans. 10 to 20 µM

Qu. # iterate: c1ccc(CNC2=Nc3ccccc3NC23CCOCC3)cc1
Ans. 50 to 100 µM

Qu. And for Cc1cc(C)cc(CNC2=Nc3ccccc3NC23CCOCC3)c1 ?
Ans. 20 to 50 µM

Qu. Then Cc1ccc(CNC2=Nc3ccccc3NC23CCCCC3)cc1 ?
Ans. 50 to 100 µM

Qu. Ok, now FC(F)(F)c1cccc(CNC2=Nc3ccccc3NC23CCCCC3)c1
Ans. 10 to 20 µM

Qu. Same lookup for Clc1cccc(CNC2=Nc3cc(Cl)c(Cl)cc3NC23CCNCC3)c1 , please.
Ans. 0.2 to 0.5 µM

---

# assay: Cellular toxicity, same assay as Example B.4 without TAM (Example B.5)
# Assay type: cell-based
# test-settings: mouse; Pfa1 cells without TAM; read-out: TC50 (the source's name)
test-readout: CC50

Known CC50 results, listed for orientation:
| compound | val |
| --- | --- |
| Fc1cc2c(cc1F)NC1(CCOCC1)C(NCc1ccccc1)=N2 [O/S-346] | 50 to 100 µM |
| Clc1cccc(CNC2=Nc3ccccc3NC23CCCCCC3)c1 [C-216] | 10 to 20 µM |
| Fc1cccc(F)c1CNC1=Nc2cc(Cl)c(Cl)cc2NC12CCCCC2 [C-240] | 5 to 10 µM |
| FC(F)(F)c1cccc2c1N=C(NCc1ccccc1)C1(CCCCC1)N2 [C-254] | 5 to 10 µM |
| FC1(F)Oc2cc3c(cc2O1)NC1(CCOCC1)C(NCc1ccccc1)=N3 [O/S-366] | 20 to 50 µM |

Qu. Can you look up the measured CC50 of c1ccc(CCCNC2=Nc3ccccc3NC23CCNCC3)cc1 [N-228] for me?
Ans. 2 to 5 µM

Qu. Here is the next compound: Fc1ccc(CNC2=Nc3ccccc3NC23CCOCC3)cc1 [O/S-6]
Ans. 50 to 100 µM

Qu. Queued: Clc1ccc(CNC2=Nc3ccccc3NC23CCNCC3)c(Cl)c1 [N-56]
Ans. 1 to 2 µM

Qu. What do you have for Fc1cccc(CNC2=Nc3ccccc3NC23CCOCC3)c1 [O/S-5] ?
Ans. 50 to 100 µM

Qu. Please give the result for Cc1cc2c(cc1C)NC1(CCNCC1)C(NCc1ccc(Cl)c(Cl)c1)=N2 [N-232] too.
Ans. 1 to 2 µM

Qu. Another: Clc1ccc(CNC2=Nc3ccccc3NC23CCCCCC3)cc1 [C-220]
Ans. 10 to 20 µM

Qu. Now this one: Cc1cccc(CNC2=Nc3ccccc3NC23CCCCC3)c1 [C-11]
Ans. 10 to 20 µM

Qu. Please do the same for CC(CCc1ccccc1)NC1=Nc2ccccc2NC12CCCCC2 (stereo not drawn) [C-233] as well.
Ans. 20 to 50 µM

Qu. Try Clc1ccc2c(c1)N=C(NCc1ccccc1)C1(CCCCC1)N2 [C-258] next.
Ans. 10 to 20 µM

Qu. Also FC(F)(F)c1cccc(CNC2=Nc3ccccc3NC23CCCCCC3)c1 [C-261] ?
Ans. 10 to 20 µM
